Biological target: SOS1/KRAS WT (Homo sapiens (Human))
Sequence (Q07889 564-1049): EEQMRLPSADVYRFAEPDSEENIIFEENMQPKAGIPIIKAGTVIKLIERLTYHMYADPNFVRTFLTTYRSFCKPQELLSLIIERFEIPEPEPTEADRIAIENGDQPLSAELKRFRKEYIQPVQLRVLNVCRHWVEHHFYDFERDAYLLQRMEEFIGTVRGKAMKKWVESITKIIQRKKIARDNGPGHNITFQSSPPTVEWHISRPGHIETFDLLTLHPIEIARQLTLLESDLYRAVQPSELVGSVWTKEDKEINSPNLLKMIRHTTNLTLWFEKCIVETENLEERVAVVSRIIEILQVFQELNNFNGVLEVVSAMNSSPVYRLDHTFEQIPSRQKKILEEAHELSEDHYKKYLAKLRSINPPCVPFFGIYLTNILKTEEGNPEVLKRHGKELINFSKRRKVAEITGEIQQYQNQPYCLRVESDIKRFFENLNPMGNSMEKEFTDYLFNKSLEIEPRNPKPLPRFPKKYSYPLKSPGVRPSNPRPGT
Assay: SOS1/KRAS WT HTRF binding assay (FRET-based protein-protein interaction)
Settings: inhibition of His6-SOS1 (aa564-1049, 40 nM) binding to GST-KRAS-WT (aa1-188, 40 nM); at least two independent replicates; read-out: SOS1/KRAS WT HTRF Binding assay pIC50 (converted)
property: IC50 (nM)
Give bare numbers, in nM.

Please review the following examples before continuing.
- Cc1nnc(NC(C)c2cccc(C(F)(F)F)c2)c2cc3c(cc12)n(C)c(=O)n3C1CCCC1 (stereo not shown) [Compound 1]: 37.2
- Cc1c([C@@H](C)Nc2nnc(C)c3cc4c(cc23)n(C2CC2)c(=O)n4C)cccc1C(F)(F)CO [Compound 68]: 9.55
- Cc1nnc(N[C@H](C)c2cccc(C(F)(F)F)c2)c2cc3c(cc12)n(C)c(=O)n3CC#N [Compound 148]: 21.4

For the next question, use this compound.
Assay SOS1/KRAS WT (Homo sapiens (Human)), sample Cc1nnc(N[C@H](C)c2cccc(C(F)(F)C(C)(C)O)c2)c2cc3c(cc12)n(C)c(=O)n3C(C)(C)C [Compound 103] , IC50 read: 7.94
